These measurements were taken from patent US20140302063A1.

- System tested: full length recombinant H1 residues 18-530 derived from A/California/06/09 (Influenza A virus A/California/06/09 (H1N1))
- Assay procedure: SPR, single cycle kinetics, HA immobilised
Items are presented alongside their recorded Kd.
Give the value in nM but do not write nM after it.

{"Binder": "R2a-H9 (VHH) VHH: QVQLVESGGGLVQPGGSLRLSCAASTNIASFYTMGWYRQTPGQQRDVVAVIGNGGNTNYADSVKGRFTISRDGAKNTAHLQMNSLKPEDTDVYYCKASGPGGVILWGQGTQVTVSS", "Measure name": "Kd", "Unit label": "nM", "Endpoint result": 2.8}

Give recorded Kd. R2a-F9 (VHH) VHH: QVQLVESGGGLVQPGGSLRLSCSASGSISSIVTMGWYRQAPGKERELVAVIGNYGNTNYADSVKGRFTVSRDNAKNTVYLQMNSLNVEDTAMYVCKFSSTVAPHEYWGQGTQVTVSS
60
